Tested on: Swiss 3T3 fibroblasts
Test name: Growth factor mediated mitogenesis (tritiated thymidine incorporation)
Assay type: cell-based
Condition notes: Mus musculus, Swiss-3T3, 24 h, EGF
Assay metric: pIC50
pIC50 here: minus log base 10 of the concentration, concentration in moles per litre.

• CN1C(=S)C(C(=O)Nc2ccccc2)c2ccccc21 (centres unmarked) = 5.70

Query compound follows.
# returns recorded pIC50 (system: Swiss 3T3 fibroblasts) for `Cn1c(SSc2c(C(=O)Nc3ccccc3)c3ccccc3n2C)c(C(=O)Nc2ccccc2)c2ccccc21`
5.52

---

Target desc: epidermal growth factor receptor tyrosine kinase (Homo sapiens, UniProt P00533)
Construct: A native 170,000 epidermal growth factor receptor-kinase complex from shed plasma membrane vesicles; endogenous in cells
Sequence (P00533 25-1210): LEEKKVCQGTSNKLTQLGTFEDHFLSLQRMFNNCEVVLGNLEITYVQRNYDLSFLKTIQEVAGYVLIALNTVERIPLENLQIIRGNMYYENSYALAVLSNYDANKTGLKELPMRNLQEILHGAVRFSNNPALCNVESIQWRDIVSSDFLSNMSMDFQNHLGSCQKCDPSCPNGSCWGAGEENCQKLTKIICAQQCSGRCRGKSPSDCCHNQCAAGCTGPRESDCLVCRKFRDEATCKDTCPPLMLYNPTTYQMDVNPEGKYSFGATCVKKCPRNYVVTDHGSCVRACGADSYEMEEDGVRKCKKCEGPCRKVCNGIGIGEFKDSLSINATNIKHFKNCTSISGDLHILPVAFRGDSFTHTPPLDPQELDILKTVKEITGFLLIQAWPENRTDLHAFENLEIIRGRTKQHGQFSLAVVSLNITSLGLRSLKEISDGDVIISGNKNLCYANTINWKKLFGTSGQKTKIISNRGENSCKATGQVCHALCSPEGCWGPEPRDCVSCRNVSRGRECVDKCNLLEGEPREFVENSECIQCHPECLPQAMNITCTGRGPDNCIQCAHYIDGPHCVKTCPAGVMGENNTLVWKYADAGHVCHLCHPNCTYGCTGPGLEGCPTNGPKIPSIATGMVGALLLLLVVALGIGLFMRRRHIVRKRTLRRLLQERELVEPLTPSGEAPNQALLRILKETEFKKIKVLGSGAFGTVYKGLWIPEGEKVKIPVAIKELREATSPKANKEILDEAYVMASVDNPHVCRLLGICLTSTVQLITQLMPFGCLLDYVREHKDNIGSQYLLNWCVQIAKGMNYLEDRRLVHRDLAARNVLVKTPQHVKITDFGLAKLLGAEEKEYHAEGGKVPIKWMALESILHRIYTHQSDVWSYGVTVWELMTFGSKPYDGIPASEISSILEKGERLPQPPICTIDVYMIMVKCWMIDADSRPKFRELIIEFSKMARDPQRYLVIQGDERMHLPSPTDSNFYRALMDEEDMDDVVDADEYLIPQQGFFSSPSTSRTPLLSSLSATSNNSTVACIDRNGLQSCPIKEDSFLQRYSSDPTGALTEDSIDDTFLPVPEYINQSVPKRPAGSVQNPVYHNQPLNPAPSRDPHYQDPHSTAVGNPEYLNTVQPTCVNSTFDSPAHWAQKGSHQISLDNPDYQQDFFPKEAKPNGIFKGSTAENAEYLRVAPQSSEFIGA
Sequence (P01133 971-1023 partner limits assumed): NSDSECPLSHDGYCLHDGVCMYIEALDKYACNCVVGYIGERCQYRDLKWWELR
Test name: EGF receptor tyrosine kinase assay (P^32 incorporation in GAT)
Assay type: biochemical
Condition notes: at 100 μM; EGRF-R; read-out: % Inhibition at 100 μM (EGFR TK)
Is inhibition at 100 µM at least 30%? Then class 1. If not, class 0.

A selection of reference data follows.
- COC(=O)CC1C(=S)Nc2ccccc21 (stereo not drawn) [Compound 3, methyl 2-(2-thioxo-3-indolinyl)acetate]: class 1
- Cc1ccc2c(C(=O)Nc3ccccc3)c(SSc3c(C(=O)Nc4ccccc4)c4ccc(C)cc4n3C)n(C)c2c1: class 0
- Cn1c(SSc2c(C(=O)Nc3ccccc3)c3cc(F)ccc3n2C)c(C(=O)Nc2ccccc2)c2cc(F)ccc21: class 1
- CCOC(=O)CC1C(=S)N(C)c2ccccc21 (stereo not drawn): class 0
- CCOC(=O)CCc1c(SSc2[nH]c3ccc(C)cc3c2CCC(=O)OCC)[nH]c2ccc(C)cc12: class 0
- COC(=O)c1cccc(NC(=O)c2c(SSc3c(C(=O)Nc4cccc(C(=O)OC)c4)c4ccccc4n3C)n(C)c3ccccc23)c1: class 1

hey, is inhibition at 100 µM for this one >= 30%? COC(=O)CC1C(=S)N(C)c2ccccc21 (stereo not drawn)
class 0

hey, is inhibition at 100 µM for this one >= 30%? `CCn1c(SSc2c(C(=O)Nc3ccccc3)c3ccccc3n2CC)c(C(=O)Nc2ccccc2)c2ccccc21`
class 0

hey, is inhibition at 100 µM for this one >= 30%? CN1C(=S)C(CC(=O)O)c2ccccc21 (stereo not drawn)
class 0
